target.or.system: T1, 4H2190-AA
T1 chain: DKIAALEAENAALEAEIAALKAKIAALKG
run.description: two-hybrid library CCmax;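 further: natural log of median RNA to DNA barcode read ratio; higher means stronger binding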
condition.summary: mean of both orientations
Response field class: string, computed from recorded interaction score by ranges group 1 (below -1), group 2 (-1 to below -0.2), group 3 (-0.2 or more)

| binder | class.assignment |
| --- | --- |
| DENAALEAEIAALKAKIAALKAKNAALEG [4H1135-AA] | group 1 |
| DKIAALEAEIAALKAKNAALEAKIAALEG [4H2165-AA] | group 1 |
| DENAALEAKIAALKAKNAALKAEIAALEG [4H1401-AA] | group 3 |
| DEIAALEAEIAALKAKNAALKAEIAALKG [4H122-AA] | group 3 |
| DKIAALEAEIAALEAENAALKAKIAALKG [4H2078-AA] | group 3 |
| DENAALEAKIAALKAEIAALEAKNAALKG [4H1352-AA] | group 1 |
| DENAALKAEIAALKAKIAALEAENAALKG [4H1636-AA] | group 2 |
| DENAALKAEIAALEAEIAALKAKNAALKG [4H1552-AA] | group 2 |
| DKIAALEAEIAALKAKIAALEAKNAALEG [4H2151-AA] | group 1 |
| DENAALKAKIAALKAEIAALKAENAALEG [4H1867-AA] | group 2 |
| DENAALEAEIAALEAKNAALKAKIAALKG [4H1086-AA] | group 3 |
| DENAALEAKIAALEAKIAALKAENAALKG [4H1324-AA] | group 1 |
| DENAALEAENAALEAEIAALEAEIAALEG [4H1153-AA] | group 3 |
